test system: Lewis lung carcinoma (LLC) tumour; test: Biodistribution in LLC tumour model in vivo; set-up: species or system C57BL/6 mice; details: 120 min post injection
property: % ID/g Tumour, mean (% ID/g)
Give your result in % ID/g as a bare value.

For orientation, consider the following solved cases.
NCCCC[C@H](NC(=O)CCN(C1(C(=O)NO)CCCC1)S(=O)(=O)c1ccc(Oc2ccc(F)cc2)cc1)C(=O)N[C@@H](CCCCN)C(=O)N[C@@H](CCCCN)C(=O)N[C@@H](CCCCN)C(=O)N[C@@H](CCCCN)C(=O)NCCOCCOCCOCCNC(=O)COCC(=O)N[C@@H](Cc1ccc(O)c([123I])c1)C(N)=O [Compound 42A] | 1.29
NC(=O)[C@H](Cc1ccc(O)c([123I])c1)NC(=O)CCOCCOCCOCCOCCOCCOCCOCCOCCOCCOCCOCCNC(=O)CCOCCOCCOCCOCCOCCOCCOCCOCCOCCOCCOCCNC(=O)CCN(C1(C(=O)NO)CCCC1)S(=O)(=O)c1ccc(Oc2ccc(F)cc2)cc1 [Compound 32A] | 1.34
O=C(CCN(C1(C(=O)NO)CCCC1)S(=O)(=O)c1ccc(Oc2ccc(F)cc2)cc1)NCCc1ccc(O)c([123I])c1 [Compound 24A] | 0.6

Would you kindly look at the next entry?
Query: Given the entry NC(=O)[C@H](Cc1ccc(O)c([123I])c1)NC(=O)COCC(=O)NCCOCCOCCOCCNC(=O)[C@H](CCC(=O)O)NC(=O)[C@H](CCC(=O)O)NC(=O)[C@H](CCC(=O)O)NC(=O)[C@H](CCC(=O)O)NC(=O)[C@H](CCC(=O)O)NC(=O)CCN(C1(C(=O)NO)CCCC1)S(=O)(=O)c1ccc(Oc2ccc(F)cc2)cc1 [Compound 38A] , what % ID/g Tumour, mean was observed with Lewis lung carcinoma (LLC) tumour?
Reply: 0.42

###

tested on: Lewis lung carcinoma (LLC) tumour; experiment: Biodistribution in LLC tumour model in vivo; design: species or system C57BL/6 mice; details: 30 min post injection
property: Tumour/Heart, mean

NC(=O)[C@H](Cc1ccc(O)c([123I])c1)NC(=O)[C@H](CCC(=O)O)NC(=O)[C@H](CCC(=O)O)NC(=O)[C@H](CCC(=O)O)NC(=O)[C@H](CCC(=O)O)NC(=O)[C@H](CCC(=O)O)NC(=O)CCN(C1(C(=O)NO)CCCC1)S(=O)(=O)c1ccc(Oc2ccc(F)cc2)cc1 [Compound 21A] | 0.83

API: the following record is the query input.
Query: // lookup Tumour/Heart, mean for NCCCC[C@H](NC(=O)CCN(C1(C(=O)NO)CCCC1)S(=O)(=O)c1ccc(Oc2ccc(F)cc2)cc1)C(=O)N[C@@H](CCCCN)C(=O)N[C@@H](CCCCN)C(=O)N[C@@H](CCCCN)C(=O)N[C@@H](CCCCN)C(=O)NCCOCCOCCOCCNC(=O)COCC(=O)N[C@@H](Cc1ccc(O)c([123I])c1)C(N)=O [Compound 42A]
Reply: 1.24

###

Listing: Tumour/Lung, mean of selected compounds
test system: Lewis lung carcinoma (LLC) tumour; assay: Biodistribution in LLC tumour model in vivo; parameters: species or system C57BL/6 mice; conditions: 120 min post injection
Reply: number alone, nothing else.

NC(=O)[C@H](CCCCNC(=O)CON=Cc1ccc([18F])cc1)NC(=O)CCN(C1(C(=O)NO)CCCC1)S(=O)(=O)c1ccc(Oc2ccc(F)cc2)cc1 [Compound 46B] | 0.80
NC(=O)[C@H](Cc1ccc(O)c([123I])c1)NC(=O)CCOCCOCCOCCOCCOCCOCCOCCOCCOCCOCCOCCNC(=O)CCN(C1(C(=O)NO)CCCC1)S(=O)(=O)c1ccc(Oc2ccc(F)cc2)cc1 [Compound 44A] | 0.72

Here's the next entry for you.
Query: Any idea what Tumour/Lung, mean was measured for O=C(CCN(C1(C(=O)NO)CCCC1)S(=O)(=O)c1ccc(Oc2ccc(F)cc2)cc1)NCCc1ccc(O)c([123I])c1 [Compound 24A] ?
Reply: 0.85

###

Let's look at some molecules and their measured Tumour/Blood, mean.
system: Lewis lung carcinoma (LLC) tumour; test: Biodistribution in LLC tumour model in vivo; design: species or system C57BL/6 mice; conditions: 5 min post injection
Kindly provide the number alone.

NC(=O)[C@H](CCCCNC(=O)CON=Cc1ccc([18F])cc1)NC(=O)CCN(C1(C(=O)NO)CCCC1)S(=O)(=O)c1ccc(Oc2ccc(F)cc2)cc1 [Compound 46B] | 0.18
NC(=O)[C@H](Cc1ccc(O)c([123I])c1)NC(=O)COCC(=O)NCCOCCOCCOCCNC(=O)[C@H](CCC(=O)O)NC(=O)[C@H](CCC(=O)O)NC(=O)[C@H](CCC(=O)O)NC(=O)[C@H](CCC(=O)O)NC(=O)[C@H](CCC(=O)O)NC(=O)CCN(C1(C(=O)NO)CCCC1)S(=O)(=O)c1ccc(Oc2ccc(F)cc2)cc1 [Compound 38A] | 0.13
NCCCC[C@H](NC(=O)CCN(C1(C(=O)NO)CCCC1)S(=O)(=O)c1ccc(Oc2ccc(F)cc2)cc1)C(=O)N[C@@H](CCCCN)C(=O)N[C@@H](CCCCN)C(=O)N[C@@H](CCCCN)C(=O)N[C@@H](CCCCN)C(=O)NCCOCCOCCOCCNC(=O)COCC(=O)N[C@@H](Cc1ccc(O)c([123I])c1)C(N)=O [Compound 42A] | 0.26
NC(=O)[C@H](Cc1ccc(O)c([123I])c1)NC(=O)CCOCCOCCOCCOCCOCCOCCOCCOCCOCCOCCOCCNC(=O)CCN(C1(C(=O)NO)CCCC1)S(=O)(=O)c1ccc(Oc2ccc(F)cc2)cc1 [Compound 44A] | 0.41
NC(=O)[C@H](Cc1ccc(O)c([123I])c1)NC(=O)CCOCCOCCOCCOCCOCCOCCOCCOCCOCCOCCOCCNC(=O)CCOCCOCCOCCOCCOCCOCCOCCOCCOCCOCCOCCNC(=O)CCN(C1(C(=O)NO)CCCC1)S(=O)(=O)c1ccc(Oc2ccc(F)cc2)cc1 [Compound 32A] | 0.16

Query: What measured Tumour/Blood, mean goes with NC(=O)[C@H](Cc1ccc(O)c([123I])c1)NC(=O)[C@H](CCC(=O)O)NC(=O)[C@H](CCC(=O)O)NC(=O)[C@H](CCC(=O)O)NC(=O)[C@H](CCC(=O)O)NC(=O)[C@H](CCC(=O)O)NC(=O)CCN(C1(C(=O)NO)CCCC1)S(=O)(=O)c1ccc(Oc2ccc(F)cc2)cc1 [Compound 21A] ?
Reply: 0.13

Query: Fill blank: measured Tumour/Blood, mean of the molecule O=C(CCN(C1(C(=O)NO)CCCC1)S(=O)(=O)c1ccc(Oc2ccc(F)cc2)cc1)NCCc1ccc(O)c([123I])c1 [Compound 24A] is ____.
Reply: 0.32

Query: So what does the record say about Tumour/Blood, mean for NC(=O)[C@H](CCCCNC(=O)CON=Cc1ccc([18F])cc1)NC(=O)CCOCCOCCOCCOCCOCCOCCOCCOCCOCCOCCOCCNC(=O)CCOCCOCCOCCOCCOCCOCCOCCOCCOCCOCCOCCNC(=O)CCN(C1(C(=O)NO)CCCC1)S(=O)(=O)c1ccc(Oc2ccc(F)cc2)cc1 [Compound 48B] ?
Reply: 0.11

###

Form: system (MMP-9 (Homo sapiens)), quantity (Ki), values below.
Numbered stars: 1 amine (or outer) side, 2 acyl side, 3 side chain; on linkers, the order of the positions; unused ones are H or OH. Square brackets hold non-standard residues; d marks the D form. Peptide text beside a SMILES is read from it. * marks the point of attachment. Tyr(3-I) = N[C@@H](Cc1ccc(O)c(I)c1)C(=O)O; X2 = O=C(NO)C1(N(CCC(=O)[*:2])[*:1])CCCC1; X1 = O=S(=O)(c1ccc(Oc2ccc(F)cc2)cc1)*
Could you give me the number in nM? Just the number is fine.

NCCCC[C@H](NC(=O)CCN(C1(C(=O)NO)CCCC1)S(=O)(=O)c1ccc(Oc2ccc(F)cc2)cc1)C(=O)N[C@@H](CCCCN)C(=O)N[C@@H](CCCCN)C(=O)N[C@@H](CCCCN)C(=O)N[C@@H](CCCCN)C(=O)NCCOCCOCCOCCNC(=O)COCC(=O)N[C@@H](Cc1ccc(O)c(I)c1)C(N)=O | 0.585

Query: Notebook: pull reported Ki for MMP-9 (Homo sapiens), entry NC(=O)[C@H](Cc1ccc(O)c(I)c1)NC(=O)[C@H](CCC(=O)O)NC(=O)[C@H](CCC(=O)O)NC(=O)[C@H](CCC(=O)O)NC(=O)[C@H](CCC(=O)O)NC(=O)[C@H](CCC(=O)O)NC(=O)CCN(C1(C(=O)NO)CCCC1)S(=O)(=O)c1ccc(Oc2ccc(F)cc2)cc1 [Compound 21] (X1-[X2]EEEEE[Tyr(3-I)]-NH2)
Reply: 0.82

Query: For MMP-9 (Homo sapiens), provide Ki of NC(=O)[C@H](Cc1ccc(O)c(I)c1)NC(=O)COCC(=O)NCCOCCOCCOCCNC(=O)[C@H](CCC(=O)O)NC(=O)[C@H](CCC(=O)O)NC(=O)[C@H](CCC(=O)O)NC(=O)[C@H](CCC(=O)O)NC(=O)[C@H](CCC(=O)O)NC(=O)CCN(C1(C(=O)NO)CCCC1)S(=O)(=O)c1ccc(Oc2ccc(F)cc2)cc1 please.
Reply: 0.99

Query: # returns recorded Ki (system: MMP-9 (Homo sapiens)) for NC(=O)[C@H](CCCCNC(=O)CON=Cc1ccc(F)cc1)NC(=O)CCN(C1(C(=O)NO)CCCC1)S(=O)(=O)c1ccc(Oc2ccc(F)cc2)cc1
Sequence (P14780 94-707): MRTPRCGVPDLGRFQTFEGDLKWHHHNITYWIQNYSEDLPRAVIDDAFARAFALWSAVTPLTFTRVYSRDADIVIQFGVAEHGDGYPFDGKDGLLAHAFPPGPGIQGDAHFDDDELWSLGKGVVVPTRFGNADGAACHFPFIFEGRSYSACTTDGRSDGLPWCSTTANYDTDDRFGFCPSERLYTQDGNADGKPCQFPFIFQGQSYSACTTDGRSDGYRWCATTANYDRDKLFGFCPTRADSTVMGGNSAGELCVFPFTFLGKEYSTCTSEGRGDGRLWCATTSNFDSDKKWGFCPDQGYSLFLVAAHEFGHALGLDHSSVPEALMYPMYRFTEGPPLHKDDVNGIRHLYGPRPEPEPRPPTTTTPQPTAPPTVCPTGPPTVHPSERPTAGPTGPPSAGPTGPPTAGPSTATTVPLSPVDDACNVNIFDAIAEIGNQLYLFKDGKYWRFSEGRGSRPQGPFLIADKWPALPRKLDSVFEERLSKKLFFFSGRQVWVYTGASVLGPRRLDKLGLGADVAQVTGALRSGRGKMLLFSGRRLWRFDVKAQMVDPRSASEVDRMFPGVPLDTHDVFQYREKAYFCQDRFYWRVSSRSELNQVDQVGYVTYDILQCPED
Reply: 0.44

Query: Tell me reported Ki for NC(=O)[C@H](CCCCNC(=O)CON=Cc1ccc(F)cc1)NC(=O)CCOCCOCCOCCOCCOCCOCCOCCOCCOCCOCCOCCNC(=O)CCOCCOCCOCCOCCOCCOCCOCCOCCOCCOCCOCCNC(=O)CCN(C1(C(=O)NO)CCCC1)S(=O)(=O)c1ccc(Oc2ccc(F)cc2)cc1 , tested with MMP-9 (Homo sapiens).
Reply: 0.2
